# target-under-test: β-Glucuronidase Bovine liver (Bos taurus, UniProt A3KMY8)
# Construct: The assay involved the use of Bovine liver β-glucuronidase; purchased Sigma; host or cells: bovine liver
# Sequence (A3KMY8 1-652): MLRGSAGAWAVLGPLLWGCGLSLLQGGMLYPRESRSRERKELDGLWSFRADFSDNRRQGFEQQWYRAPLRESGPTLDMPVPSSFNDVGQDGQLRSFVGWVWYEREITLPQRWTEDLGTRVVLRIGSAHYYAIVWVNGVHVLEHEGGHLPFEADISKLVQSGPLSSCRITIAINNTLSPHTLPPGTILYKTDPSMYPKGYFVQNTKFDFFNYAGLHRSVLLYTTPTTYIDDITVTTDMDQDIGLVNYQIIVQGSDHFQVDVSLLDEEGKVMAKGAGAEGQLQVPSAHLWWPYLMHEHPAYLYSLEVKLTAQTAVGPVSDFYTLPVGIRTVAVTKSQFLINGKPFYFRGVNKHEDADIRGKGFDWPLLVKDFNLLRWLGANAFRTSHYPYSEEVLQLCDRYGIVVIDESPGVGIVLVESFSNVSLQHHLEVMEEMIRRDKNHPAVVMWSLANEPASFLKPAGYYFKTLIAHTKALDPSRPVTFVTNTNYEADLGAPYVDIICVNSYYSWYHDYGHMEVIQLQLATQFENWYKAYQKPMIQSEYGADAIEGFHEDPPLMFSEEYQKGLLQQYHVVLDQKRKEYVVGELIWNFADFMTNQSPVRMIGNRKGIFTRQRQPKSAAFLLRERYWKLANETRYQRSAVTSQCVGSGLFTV
# assay-name: Glycosidase inhibition: β-Glucuronidase Bovine liver;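 further: bovine liver β-glucuronidase acting on p-nitrophenyl β-D-glucuronide substrate in citric acid/disodium hydrogen phosphate buffer, pH 5.0, 27 °C, mean of triplicate runs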
# Type: biochemical
# measurement-parameters: read-out: IC50 Glucuronidase Bovine Liver
Could you please report measured pIC50 for the items listed next?
pIC50 is defined as minus the log10 of a concentration measured in mol/L.

Looking for the measured pIC50 of O=C(O)CCC1[C@H](CO)C(=O)[C@H](O)[C@H]1CO (some centres unmarked) , can you help?
4.09

# repeat for `O=C(O)[C@@]1(O)CNC[C@@H](O)[C@H]1O`
3.27

# repeat for `O=C(O)[C@H]1NC(=O)[C@H](O)[C@@H](O)[C@@H]1O`
7.40

# repeat for O=C(O)[C@H]1NC[C@H](O)[C@@H](O)[C@@H]1O [drawing 22]
3.97

# repeat for CC(=O)NC1NC[C@H](C(=O)O)[C@H](O)[C@@H]1O (some centres unmarked)
5.14

This collection of values is drawn from patent US20110015226A1.
